All figures here come from patent US8541418B2.

# Tested System: PLK3 (Homo sapiens, UniProt Q9H4B4)
# Sequence (Q9H4B4 whole entry): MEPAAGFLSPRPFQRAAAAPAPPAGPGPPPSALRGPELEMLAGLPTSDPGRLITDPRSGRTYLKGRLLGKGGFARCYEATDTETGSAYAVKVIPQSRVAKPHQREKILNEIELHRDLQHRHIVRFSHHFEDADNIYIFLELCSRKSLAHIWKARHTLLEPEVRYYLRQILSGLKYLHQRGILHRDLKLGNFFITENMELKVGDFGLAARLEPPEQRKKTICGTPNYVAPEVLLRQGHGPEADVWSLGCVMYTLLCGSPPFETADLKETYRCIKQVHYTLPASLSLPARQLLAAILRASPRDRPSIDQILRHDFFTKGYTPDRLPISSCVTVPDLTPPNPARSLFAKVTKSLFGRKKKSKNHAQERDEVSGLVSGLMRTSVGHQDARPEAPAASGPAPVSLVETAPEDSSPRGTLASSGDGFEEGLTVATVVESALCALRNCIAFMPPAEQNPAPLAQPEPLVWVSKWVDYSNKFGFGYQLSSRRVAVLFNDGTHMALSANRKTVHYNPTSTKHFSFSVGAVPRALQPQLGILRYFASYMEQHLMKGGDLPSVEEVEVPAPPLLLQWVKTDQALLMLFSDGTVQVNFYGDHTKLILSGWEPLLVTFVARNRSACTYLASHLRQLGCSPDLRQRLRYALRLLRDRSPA
# Assay Protocol: PLK TR-FRET peptide assay, PLK3
# Type: biochemical
# Condition Details: GST-PLK3, 15 min reaction, read-out: Plk3 IC50
Property Measured: IC50

Below: 5 molecules and their reported IC50.
Exercise: Consider the molecule CC[C@@H]1C(=O)N(C)c2cnc(-n3ccnc3-c3cccc(F)c3)nc2N1C1CC(F)(F)C1 [Example 194] and give its recorded IC50.
Solution: 10 to 50 µM

Exercise: Give the reported IC50 for this molecule. CC[C@@]12CCCN1c1nc(-c3cn[nH]c3-c3ccccc3)ncc1N(C)C2=O [Example 305]
Solution: 10 to 50 µM

Exercise: Quickly give me recorded IC50 for CC[C@@H]1C(=O)N(C)c2cnc(-c3ccncc3CN)nc2N1C(C)C [Example 126]
Solution: > 50 µM

Exercise: Kindly indicate its recorded IC50. Item: CC[C@@H]1C(=O)N(C)c2cnc(-c3ccncc3-c3ccccc3)nc2N1C1CCC1 [Example 96]
Solution: < 1 µM

Exercise: Output measured IC50 for this item: [2H]C([2H])([2H])N1C(=O)C(C([2H])([2H])C([2H])([2H])[2H])N(C([2H])(C([2H])([2H])[2H])C([2H])([2H])[2H])c2nc(-n3ccnc3-c3nccs3)ncc21 (stereo not shown) [Example 158]
Solution: 10 to 50 µM

For each of the molecules below, state IC50.
1. CCC12CCCCN1c1nc(-n3ccnc3-c3cc(F)c(F)c(F)c3)ncc1N(C)C2=O (racemic) [Example 256]
2. CC[C@@H]1C(=O)N(C)c2cnc(-n3ccnc3N3CCCC3)nc2N1C1CCCC1 [Example 86]

Solution:
1: > 50 µM; 2: > 50 µM

====

Please provide measured IC50 for the entries that follow.
# Tested System: PLK1 (Homo sapiens)
# Assay Protocol: PLK TR-FRET peptide assay, PLK1
# Type: biochemical
# Condition Details: GST-PLK1, 60 min reaction

Exercise: Read off the recorded IC50 for CC[C@@H]1C(=O)N(C)c2cnc(-n3ccnc3-c3ccc(F)c(Cl)c3)nc2N1C1CCOC1 (stereo partly shown) [Example 232]
Solution: 1 to 10 µM

Exercise: Report IC50 for CC[C@@H]1C(=O)N(C)c2cnc(-c3cn[nH]c3-c3cscn3)nc2N1C(C)C [Example 320]
Solution: 1 to 10 µM

Exercise: Provide only the value of recorded IC50 for CC[C@@H]1C(=O)N(C)c2cnc(-c3ccccn3)nc2N1C1CCCC1 [Example 8]
Solution: 1 to 10 µM

Exercise: Return the recorded IC50 value; entry: CC[C@@H]1C(=O)N(C)c2cnc(N3CCN(C)CC3)nc2N1C1CCCC1 [Example 210]
Solution: > 50 µM

Batch request: IC50 per item, same order as input.
1. CN1C(=O)[C@H](CC(F)(F)F)N(CCC(F)(F)F)c2nc(-n3ccnc3-c3ccc(F)cc3F)ncc21 [Example 294]
2. [2H]C([2H])([2H])N1C(=O)[C@H](C([2H])([2H])C([2H])([2H])[2H])N(C([2H])(C([2H])([2H])[2H])C([2H])([2H])[2H])c2nc(-n3ccnc3-c3cc(F)cc(F)c3)ncc21 [Example 178]
3. CC[C@@H]1C(=O)N(C)c2cnc(-n3ccnc3-c3cccc(F)c3F)nc2N1CCC(F)(F)F [Example 254]

Solution:
["> 50 µM", "> 50 µM", "< 1 µM"]

====

# Tested System: PLK2 (Homo sapiens, UniProt Q9NYY3)
# Sequence (Q9NYY3 whole entry): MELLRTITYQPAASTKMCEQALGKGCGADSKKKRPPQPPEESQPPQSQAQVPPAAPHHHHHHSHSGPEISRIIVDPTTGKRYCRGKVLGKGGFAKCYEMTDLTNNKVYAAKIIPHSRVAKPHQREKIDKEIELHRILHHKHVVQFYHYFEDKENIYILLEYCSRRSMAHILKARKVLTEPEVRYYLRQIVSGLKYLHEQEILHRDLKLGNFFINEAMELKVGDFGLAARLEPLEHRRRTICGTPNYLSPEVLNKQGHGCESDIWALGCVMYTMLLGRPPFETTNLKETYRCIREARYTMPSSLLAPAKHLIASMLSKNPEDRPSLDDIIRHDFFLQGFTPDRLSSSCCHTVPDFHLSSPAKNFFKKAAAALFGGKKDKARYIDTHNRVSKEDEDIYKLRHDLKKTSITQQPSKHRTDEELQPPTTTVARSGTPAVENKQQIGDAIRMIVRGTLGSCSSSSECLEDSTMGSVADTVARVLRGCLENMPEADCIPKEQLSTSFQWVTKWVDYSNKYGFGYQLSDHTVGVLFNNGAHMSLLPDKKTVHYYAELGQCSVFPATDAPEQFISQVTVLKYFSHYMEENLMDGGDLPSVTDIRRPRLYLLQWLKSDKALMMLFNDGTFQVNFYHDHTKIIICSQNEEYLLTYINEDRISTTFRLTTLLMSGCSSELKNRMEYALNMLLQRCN
# Assay Protocol: PLK TR-FRET peptide assay, PLK2
# Type: biochemical
# Condition Details: PLK TR-FRET peptide assay, GST-PLK2, 60 min reaction; read-out: Plk2 IC50
pIC50: −log10 of the molar value.
Property Measured: pIC50

Example cases with answers are listed next.
Exercise: // fetch pIC50; item: CC[C@@H]1C(=O)N(C)c2cnc(-n3ccnc3-c3ccncc3)nc2N1CCC(F)(F)F [Example 234] ; system: PLK2 (Homo sapiens, UniProt Q9NYY3)
Solution: > 6.00

Exercise: Enter recorded pIC50 with PLK2 (Homo sapiens, UniProt Q9NYY3) for CC[C@@H]1C(=O)N(C)c2cnc(-n3ccnc3)nc2N1C1CCOCC1 [Example 295] here.
Solution: 5.00 to 6.00

Exercise: Give pIC50 only, for CC[C@@H]1C(=O)N(C)c2cnc(-n3ccnc3-c3nccs3)nc2N1C(C)C [Example 151] , using PLK2 (Homo sapiens, UniProt Q9NYY3) data.
Solution: > 6.00

Exercise: Give pIC50 for this entry on PLK2 (Homo sapiens, UniProt Q9NYY3): CC[C@@H]1C(=O)N(C)c2cnc(-n3ccnc3C3CC3)nc2N1C1CCCC1 [Example 288]
Solution: > 6.00

Exercise: // output pIC50; input CC[C@@H]1C(=O)N(C)c2cnc(-n3ccnc3-c3cccc(C#N)c3)nc2N1C(C)C [Example 228] ; system PLK2 (Homo sapiens, UniProt Q9NYY3)
Solution: > 6.00

Exercise: Output reported pIC50 of the compound [2H]C([2H])([2H])N1C(=O)C(C([2H])([2H])C([2H])([2H])[2H])N(C([2H])(C([2H])([2H])[2H])C([2H])([2H])[2H])c2nc(-n3ccnc3-c3ccc(F)c(F)c3)ncc21 (stereo not drawn) [Example 169] on PLK2 (Homo sapiens, UniProt Q9NYY3).
Solution: > 6.00

Exercise: # assay system PLK2 (Homo sapiens, UniProt Q9NYY3): give pIC50 of CC[C@@H]1C(=O)N(C)c2cnc(-n3ccnc3N3CCCC3)nc2N1C1CCCC1 [Example 86]
Solution: 5.00 to 6.00

Exercise: Enter measured pIC50, system PLK2 (Homo sapiens, UniProt Q9NYY3), for the compound shown: CC[C@@H]1C(=O)N(C)c2cnc(-n3ccnc3-c3cccc(Br)c3)nc2N1C(C)C [Example 220]
Solution: > 6.00

Exercise: Jot down pIC50 (PLK2 (Homo sapiens, UniProt Q9NYY3)) of CC[C@@H]1C(=O)N(C)c2cnc(-n3ccnc3-c3ccc(F)cc3)nc2N1C(C)C1CC1 (stereo partly drawn) [Example 351] .
Solution: > 6.00

Exercise: Output reported pIC50 of the compound CC[C@@H]1C(=O)N(C)c2cnc(-n3cccn3)nc2N1C1CCCC1 [Example 42] on PLK2 (Homo sapiens, UniProt Q9NYY3).
Solution: > 6.00

For every record below, what is its pIC50?
1. CN1C(=O)[C@@H](CC(F)(F)F)N(CCC(F)(F)F)c2nc(-n3ccnc3)ncc21 [Example 301]
2. CC[C@@H]1C(=O)N(C)c2cnc(-n3ccnc3-c3ccccc3)nc2N1C1COC1 [Example 335]
3. [2H]C([2H])([2H])N1C(=O)C(C([2H])([2H])C([2H])([2H])[2H])N(C([2H])(C([2H])([2H])[2H])C([2H])([2H])[2H])c2nc(-n3ccnc3-c3cc(F)cc(F)c3)ncc21 (racemic) [Example 163]
4. CC[C@@H]1C(=O)N(C)c2cnc(-n3ccnc3C3=CCOCC3)nc2N1C1CCCC1 [Example 84]

Solution:
1. > 6.00
2. > 6.00
3. > 6.00
4. > 6.00

Exercise: Enter recorded pIC50 with PLK2 (Homo sapiens, UniProt Q9NYY3) for CC[C@@H]1C(=O)N(C)c2cnc(-c3cccc4cc[nH]c34)nc2N1C1CCCC1 [Example 10] here.
Solution: 5.00 to 6.00

====

Please go through the items and note down their pIC50.
# Tested System: UniProt Q9NYY3
# Assay Protocol: PLK TR-FRET peptide assay, PLK2
# Assay type: biochemical
# Condition Details: PLK TR-FRET peptide assay, GST-PLK2, 60 min reaction; read-out: Plk2 IC50
pIC50: −log10 of the molar value.

Exercise: Return pIC50 (reported value) for this compound: CC[C@@H]1C(=O)N(C)c2cnc(-n3ccnc3-c3cncnc3)nc2N1C1CC1
Solution: 5.00 to 6.00

Hey, quick one: what's pIC50 for each of these?
1. CC[C@@H]1C(=O)N(C)c2cnc(-c3ccnc(N(C)C)c3)nc2N1C1CCCC1
2. CC[C@@H]1C(=O)N(C)c2cnc(-c3ccncc3CNC(=O)c3ccccc3)nc2N1C(C)C
3. CC[C@@]12CCCN1c1nc(-n3ccnc3-c3nccc4ccccc34)ncc1N(C)C2=O

Solution:
1. > 6.00
2. < 4.30
3. 5.00 to 6.00

====

Exercise: state measured pIC50 for each of the molecules provided.
# Tested System: PLK1 (Homo sapiens, UniProt P53350)
# Sequence (P53350 whole entry): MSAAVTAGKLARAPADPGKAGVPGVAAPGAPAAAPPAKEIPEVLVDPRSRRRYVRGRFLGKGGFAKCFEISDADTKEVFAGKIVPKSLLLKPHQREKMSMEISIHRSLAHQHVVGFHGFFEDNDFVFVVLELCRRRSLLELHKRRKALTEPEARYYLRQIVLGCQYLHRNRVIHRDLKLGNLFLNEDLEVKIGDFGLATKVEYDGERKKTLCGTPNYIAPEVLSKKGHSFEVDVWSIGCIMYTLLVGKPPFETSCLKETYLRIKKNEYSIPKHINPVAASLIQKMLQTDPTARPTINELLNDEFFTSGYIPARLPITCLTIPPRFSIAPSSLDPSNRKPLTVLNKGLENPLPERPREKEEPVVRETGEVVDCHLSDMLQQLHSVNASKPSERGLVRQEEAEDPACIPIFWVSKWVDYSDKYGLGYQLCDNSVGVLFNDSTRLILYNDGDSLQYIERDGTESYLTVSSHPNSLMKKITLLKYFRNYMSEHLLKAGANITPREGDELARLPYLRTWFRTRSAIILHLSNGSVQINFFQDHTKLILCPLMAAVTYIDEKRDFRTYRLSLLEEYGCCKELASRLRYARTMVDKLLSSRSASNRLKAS
# Assay Protocol: PLK TR-FRET peptide assay, PLK1
# Assay type: biochemical
# Condition Details: GST-PLK1, 60 min reaction
pIC50: −log10 of the molar value.

Guide cases for pIC50, answers given:
Exercise: Provide only the value of recorded pIC50 for CC[C@@H]1C(=O)N(C)c2cnc(-c3ccncc3CNC(=O)c3ccccc3)nc2N1C1CCCC1 [Example 123]
Solution: 4.30 to 5.00

Exercise: Specify reported pIC50 for the molecule shown: CC[C@@H]1C(=O)N(C)c2cnc(-n3ccnc3-c3ccc(F)c(Cl)c3)nc2N1C(C)C [Example 186]
Solution: 5.00 to 6.00

Exercise: Find the measured pIC50 of CC[C@@]12CCC(=O)N1c1nc(-n3ccnc3)ncc1N(C)C2=O [Example 311] and report it.
Solution: < 4.30

Give measured pIC50 for every item shown.
1. CC[C@@H]1C(=O)N(C)c2cnc(-n3ccnc3-c3cccnc3)nc2N1C1CCCC1 [Example 67]
2. CC[C@@H]1C(=O)N(C)c2cnc(-n3ccnc3N3CCN(C)CC3)nc2N1C1CCCC1 [Example 88]
3. CC[C@@H]1C(=O)N(C)c2cnc(-n3ccnc3-c3ccc(F)cc3Cl)nc2N1CCC(F)(F)F [Example 282]
4. CC[C@@H]1C(=O)N(C)c2cnc(-n3ccnc3-c3ccc(F)cc3F)nc2N1CCC(F)(F)F [Example 277]
5. CC[C@@H]1C(=O)N(C)c2cnc(-n3ccnc3Cl)nc2N1C1CCCC1 [Example 292]

Solution:
1: > 6.00; 2: 4.30 to 5.00; 3: 4.30 to 5.00; 4: 5.00 to 6.00; 5: 5.00 to 6.00

For each of the molecules below, note its pIC50.
1. CC[C@@H]1C(=O)N(C)c2cnc(-n3ccnc3C3=CCOCC3)nc2N1C1CCCC1 [Example 84]
2. CC[C@@H]1C(=O)N(C)c2cnc(-n3ccnc3-c3ccccc3)nc2N1C1COC1 [Example 335]

Solution:
1. 5.00 to 6.00
2. 5.00 to 6.00

Please supply pIC50 for each of the following items, keeping them in order.
1. CC[C@@H]1C(=O)N(C)c2cnc(-n3ccnc3C3CC3)nc2N1C1CCCC1 [Example 288]
2. CCC12CCCCN1c1nc(-n3ccnc3-c3cccc(F)c3F)ncc1N(C)C2=O (racemic) [Example 248]
3. CCC12CCCCCN1c1nc(-n3ncnc3-c3ccccc3)ncc1N(C)C2=O (racemic) [Example 216]
4. CC[C@@H]1C(=O)N(C)c2cnc(-c3scnc3-c3ccn[nH]3)nc2N1C(C)C [Example 348]
5. CC[C@@H]1C(=O)N(C)c2cnc(-n3ccnc3-c3cccc(Cl)c3)nc2N1C1CCOC1 (some centres unmarked) [Example 211]
6. CC[C@]12CCCCN1c1nc(-n3ccnc3-c3cc(F)c(F)c(F)c3)ncc1N(C)C2=O [Example 267]

Solution:
1. 5.00 to 6.00
2. 5.00 to 6.00
3. 5.00 to 6.00
4. 5.00 to 6.00
5. > 6.00
6. < 4.30
